# test-target: IGF-1R (human cytoplasmic domain fused with GST) (Homo sapiens)
# Construct: The human cytoplasmic domain of IGF-1R was cloned by fusion with glutathione S-transferase (GST); made in house; host or cells: SF21 insect cells (baculovirus, pFastBac-GST)
# Sequence (P08069 960-1367 limits assumed): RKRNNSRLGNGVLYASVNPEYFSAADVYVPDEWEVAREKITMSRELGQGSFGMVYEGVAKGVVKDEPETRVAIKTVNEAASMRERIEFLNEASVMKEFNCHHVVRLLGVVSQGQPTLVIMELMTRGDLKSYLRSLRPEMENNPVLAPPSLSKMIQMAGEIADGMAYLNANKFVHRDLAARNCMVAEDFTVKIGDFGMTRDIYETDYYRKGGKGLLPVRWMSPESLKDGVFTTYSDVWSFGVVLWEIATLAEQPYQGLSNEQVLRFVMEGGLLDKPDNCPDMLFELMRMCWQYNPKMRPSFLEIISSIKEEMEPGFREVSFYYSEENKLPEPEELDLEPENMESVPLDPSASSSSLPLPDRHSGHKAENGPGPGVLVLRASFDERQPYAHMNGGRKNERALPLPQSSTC
# measurement-protocol: Kinase IGF-1R test (Test A): inhibition of autophosphorylation of the enzyme, HTRF
# Format: biochemical
# condition-description: preincubation with enzyme 30 minutes; 120 μM ATP; read-out: Test A 30′ IC50
pIC50: −log10 of the molar value.
Readings of pIC50 for the listed compounds

- compound: "CC(C)(C)c1ccc(N2C(=O)N(Cc3ccnc(Nc4cccnc4)n3)C(C)(C)C2=O)cc1 [Example 1]"
  pIC50: "7.00 to 8.00"
- compound: "CC1(C)CN(C(=O)CNC2CCCC2)c2cc(N3C(=O)N(Cc4ccnc(Nc5cccnc5)c4)C(C)(C)C3=O)ccc21 [Example 4]"
  pIC50: "7.00 to 8.00"
- compound: "CCCCN(C)C(=O)Nc1cc(CN2C(=O)N(c3ccc(C(C)(C)C)cc3)C(=O)C2(C)C)ccn1 [Example 27]"
  pIC50: "7.00 to 8.00"
- compound: "CC(C)(C)c1ccc(N2C(=O)N(Cc3ccnc(NC(=O)N4CCOCC4)c3)C(C)(C)C2=O)cc1 [Example 20]"
  pIC50: "7.00 to 8.00"

----------
# test-target: IGF1R in MCF-7 cells (Homo sapiens, UniProt P08069)
# Construct: endogenous in cells
# Sequence (P08069 31-1367): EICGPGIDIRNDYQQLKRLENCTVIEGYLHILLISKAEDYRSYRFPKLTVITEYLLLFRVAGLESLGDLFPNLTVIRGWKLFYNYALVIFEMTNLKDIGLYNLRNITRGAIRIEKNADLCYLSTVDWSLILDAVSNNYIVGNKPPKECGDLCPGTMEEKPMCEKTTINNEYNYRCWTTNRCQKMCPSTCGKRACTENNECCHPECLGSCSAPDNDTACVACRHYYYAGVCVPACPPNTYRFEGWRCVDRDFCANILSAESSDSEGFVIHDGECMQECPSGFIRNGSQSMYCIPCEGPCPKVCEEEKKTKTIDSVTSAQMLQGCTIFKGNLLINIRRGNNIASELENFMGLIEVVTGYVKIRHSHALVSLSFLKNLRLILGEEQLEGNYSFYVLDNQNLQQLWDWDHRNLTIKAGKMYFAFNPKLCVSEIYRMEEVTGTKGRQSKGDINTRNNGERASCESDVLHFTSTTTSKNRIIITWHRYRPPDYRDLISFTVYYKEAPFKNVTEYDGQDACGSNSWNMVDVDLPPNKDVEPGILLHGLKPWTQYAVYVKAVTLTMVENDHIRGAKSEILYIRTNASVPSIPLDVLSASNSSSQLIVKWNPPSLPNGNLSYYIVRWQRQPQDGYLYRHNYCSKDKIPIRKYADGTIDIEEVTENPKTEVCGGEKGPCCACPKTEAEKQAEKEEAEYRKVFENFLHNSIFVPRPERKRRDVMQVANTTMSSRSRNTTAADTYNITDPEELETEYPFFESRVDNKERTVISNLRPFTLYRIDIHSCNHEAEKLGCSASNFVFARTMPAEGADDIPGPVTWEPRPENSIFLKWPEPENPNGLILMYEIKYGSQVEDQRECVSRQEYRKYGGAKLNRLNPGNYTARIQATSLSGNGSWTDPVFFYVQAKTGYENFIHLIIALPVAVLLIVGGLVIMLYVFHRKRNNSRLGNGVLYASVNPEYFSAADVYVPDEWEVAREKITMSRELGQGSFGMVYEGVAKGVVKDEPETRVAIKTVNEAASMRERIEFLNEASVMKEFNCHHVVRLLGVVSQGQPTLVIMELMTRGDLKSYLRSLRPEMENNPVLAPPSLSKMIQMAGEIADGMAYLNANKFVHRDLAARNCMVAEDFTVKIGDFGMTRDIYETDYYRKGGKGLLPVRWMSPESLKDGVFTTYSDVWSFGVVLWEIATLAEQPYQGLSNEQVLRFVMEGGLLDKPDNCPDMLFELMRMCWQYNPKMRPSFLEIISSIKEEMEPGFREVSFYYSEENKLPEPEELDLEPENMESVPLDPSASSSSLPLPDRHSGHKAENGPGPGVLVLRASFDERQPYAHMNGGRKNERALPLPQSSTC
# measurement-protocol: Autophosphorylation of IGF-1R in MCF7 cells after stimulation with IGF-1 (Test B), ELISA
# condition-description: compound added one hour before IGF1 stimulation (10 minutes)
recorded-metric: IC50

- compound: "CC(C)(C)c1ccc(N2C(=O)N(Cc3ccnc(Nc4cccc(CN5CCCC5)c4)c3)C(C)(C)C2=O)cc1 [Example 31G]"
  test-target: "IGF1R in MCF-7 cells (Homo sapiens, UniProt P08069)"
  experimental-value: "10 to 100 nM"
- compound: "CC(C)(C)c1ccc(N2C(=O)N(Cc3ccnc(Nc4ccc(CCN5CCCC5)cc4)c3)C(C)(C)C2=O)cc1 [Example 31U]"
  test-target: "IGF1R in MCF-7 cells (Homo sapiens, UniProt P08069)"
  experimental-value: "< 10 nM"
- compound: "CCCCNC(=O)Nc1cc(CN2C(=O)N(c3ccc(C(C)(C)C)cc3)C(=O)C2(C)C)ccn1 [Example 28]"
  test-target: "IGF1R in MCF-7 cells (Homo sapiens, UniProt P08069)"
  experimental-value: "10 to 100 nM"
- compound: "CN(C)CC(=O)N1CC(C)(C)c2ccc(N3C(=O)N(Cc4ccnc(Nc5cccnc5)c4)C(C)(C)C3=O)cc21 [Example 31B]"
  test-target: "IGF1R in MCF-7 cells (Homo sapiens, UniProt P08069)"
  experimental-value: "10 to 100 nM"
- compound: "CC(C)(C)c1ccc(N2C(=O)N(Cc3ccnc(Nc4cccnc4Cl)c3)C(C)(C)C2=O)cc1 [Example 31K]"
  test-target: "IGF1R in MCF-7 cells (Homo sapiens, UniProt P08069)"
  experimental-value: "< 10 nM"
- compound: "CC(C)(C)c1ccc(N2C(=O)N(Cc3ccnc(Nc4cccc(CCN5CCCC5)c4)c3)C(C)(C)C2=O)cc1 [Example 31H]"
  test-target: "IGF1R in MCF-7 cells (Homo sapiens, UniProt P08069)"
  experimental-value: "< 10 nM"
- compound: "CC(C)(C)c1ccc(N2C(=O)N(Cc3ccnc(NC(=O)NC4CCC4)c3)C(C)(C)C2=O)cc1 [Example 14]"
  test-target: "IGF1R in MCF-7 cells (Homo sapiens, UniProt P08069)"
  experimental-value: "10 to 100 nM"
